Test: reversal of MRP1-mediated doxorubicin resistance, pilot screen, H69AR cells, doxorubicin co-treatment (AID 601)
Recorded Conditions: H69AR cells, CellTiter-Glo, 72 h; compound alone cytotoxicity; at 10 µM
The label is yes (1) for viability below 90% and no (0) for viability equal to or exceeding 90%.

Below are worked cases with known answers.
{"columns": ["Molecule", "Group"],
 "data": [
  ["Cc1ccc(C(=O)NC2CC3CCCC(C2)N3C(=O)NC2CCCCC2)cc1 (stereo unspecified)", "no (0)"],
  ["CCN(CC)CCN1C(=O)C(O)=C(C(=O)c2ccco2)C1c1ccccn1 (stereo unspecified)", "no (0)"],
  ["CCN(CC)c1ccc(-c2nn3c(-c4cccnc4)nnc3s2)cc1", "yes (1)"]
]}

Query block: Answer whether the molecule CCOC(=O)C1(C)NC(c2ccc(OC)c(OC)c2)C2C(=O)N(CC)C(=O)C21 (stereo unspecified) has viability strictly less than 90%
Result block: no (0)

Query block: Now the molecule Cc1nnc(SCCn2c(N3CC(C)CC(C)C3)nc3c2c(=O)n(C)c(=O)n3C)s1 (stereo unspecified)
Result block: no (0)

Query block: And the next one, `CCc1nn2c(N3CCOCC3)cc(C)nc2c1-c1ccc(F)cc1` ?
Result block: no (0)

----------
Test: HUVEC growth inhibition – cell-based, human, primary screen (AID 575);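 note: 100% = median of untreated cell wells with 0.1% DMSO on each plate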
Recorded Conditions: HUVEC proliferation, CellTiter-Glo luminescence, 72 h; at 10 µM; stronger effect = lower value
Parameter Measured: viability (%)
Number only, in %; omit the unit.

{"columns": ["Compound", "Parameter Measured", "Observed Value"],
 "data": [
  ["Oc1cc(NCc2cccnc2)ccc1-c1nc2ccccc2o1", "viability", 97.2],
  ["COc1ccccc1N1CCN(C(=O)c2oc3cc(C)c(C)cc3c2C)CC1", "viability", 82.4],
  ["Cc1nc(N2CCOCC2)[nH]c(=O)c1CCC(C)C", "viability", 87.7],
  ["CCCN1C2CCCC1CC(NC(=O)Nc1cccc(C(C)=O)c1)C2 (stereo not given)", "viability", 94.8],
  ["COc1ccc2nc(NC(=O)C3CCCN(S(=O)(=O)c4cccc5nsnc45)C3)sc2c1 (stereo not given)", "viability", 75],
  ["COc1ccc2[nH]c(=O)c(CN(Cc3cccs3)S(=O)(=O)c3cccc4nsnc34)cc2c1", "viability", 59.2],
  ["COc1ccc(CNC(=O)CN(C(=O)c2ccc(CN3CCOCC3)o2)C2CCCC2)cc1", "viability", 89],
  ["C=CCc1cc(OC)ccc1OCC(O)CN1CCN(c2ccc(OC)cc2)CC1 (stereo not given)", "viability", 89],
  ["COc1ccc2cc(C(=O)NCc3ccco3)c(=Nc3ccc(C(=O)O)cc3)oc2c1", "viability", 77.4]
]}

We next turn to a different compound, shown below.
Query block: Name the recorded viability for `COc1ccc(N(CC(=O)NCCSC(C)(C)C)S(C)(=O)=O)c(OC)c1` .
Result block: 106

----------
Readings of Her2 level for the listed molecules
Tested Target: Receptor tyrosine-protein kinase erbB-2 (Homo sapiens)
Test: reducers of endogenous Her2 protein level, primary screen, SKBR3 breast tumor cells, AlphaScreen, ATP viability (AID 461);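 note: lower value means less Her2 protein in the cells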
Recorded Conditions: 18-24 h, at 10 µM, stronger effect = lower value
Expressed in %, but write only the number.

Please review the following examples before continuing.
{"columns": ["Molecule", "Parameter Measured", "Observed Value"],
 "data": [
  ["CCc1ccccc1NC(=O)C(C#N)Cc1cccnc1 (stereo not drawn)", "Her2 level", 88.5],
  ["Cn1c(=O)c2c(nc(NCCCO)n2CCc2ccccc2)n(C)c1=O", "Her2 level", 138]
]}

Query block: Name the recorded Her2 level for `CCOC(=O)N1CCN(c2c(NCCN(C)Cc3ccccc3)c(=O)c2=O)CC1` .
Result block: 95

Query block: Next molecule up: O=C(CSC1=NC(=O)C(Cc2ccccc2)C(=O)N1)NC1CCCCC1 (stereo not drawn)
Result block: 118

Query block: Also need `c1c2c(cc3sc(N4CCCCC4)nc13)OCCO2` , thanks.
Result block: 91.5

Query block: Also check CCN1CCCC1CNC(=O)CS(=O)(=O)Cc1nc(-c2ccccc2C)oc1C (stereo not drawn)
Result block: 92.5

Query block: What would you report for `COCCN(CC(=O)NC1CCCCC1)C(=O)CSc1nc2ccccc2o1` ?
Result block: 96

Query block: Here is the next molecule: `Cn1c(=O)n(C)c2cc(CNc3ccc(N4CCOCC4)c(C(=O)O)c3)ccc21`
Result block: 89.5

----------
Test: growth inhibitors of H69AR lung tumor, primary screen, human, duplicate replicates (AID 580);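 note: 100% = mean luminescence of untreated wells and 0% = no signal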
Recorded Conditions: H69AR lung tumor cells viability, ATP luminescence, 72 h; at 10 µM; stronger effect = lower value
Parameter Measured: viability (%)
Value expressed in %; do not type the unit.

{"columns": ["Smiles String", "viability [%]"],
 "data": [
  ["COc1ccc(C(=O)NCCn2ccc3ccccc32)c(OC)c1", 87.7],
  ["O=C(CSc1nc2ccccc2n1CC(=O)N1CCCC1)Nc1nccs1", 95.3],
  ["CCCn1cc(SCC(=O)NCc2ccco2)c2ccccc21", 94],
  ["COC(=O)c1cc(Br)c(=O)n(Cc2cccnc2)c1", 97.3],
  ["COc1ccc(N2CCN(Cc3nc4c(c(=O)[nH]c(=O)n4C)n3CC(C)=O)CC2)cc1", 95.4]
]}

Query block: Value lookup for viability; key = `Cc1ccc(NC(=O)CSc2nnc(-c3cnccn3)n2Cc2ccco2)cc1C`
Result block: 104

----------
Test: HUVEC growth inhibition – cell-based, human, primary screen (AID 575);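 note: 100% = median of untreated cell wells with 0.1% DMSO on each plate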
Recorded Conditions: HUVEC proliferation, CellTiter-Glo luminescence, 72 h; at 10 µM; stronger effect = lower value
Parameter Measured: viability (%)
Express it in %; write the number only.

// solved cases for viability follow
{"columns": ["Compound", "viability, %"],
 "data": [
  ["CCc1nc(N)c(C#N)c(-c2ccc(OC)c(OC)c2)c1C", 91.4],
  ["COc1ccc(CNC(=O)COC(=O)c2n[nH]c3ccccc23)cc1OC", 89.7],
  ["CCc1ccccc1-n1c(SCC(=O)N2CCCC2)nnc1-c1ccccn1", 123],
  ["N#CC1=C(N)Oc2n[nH]c(-c3cccs3)c2C1c1cccs1 (centres undefined)", 81.4],
  ["O=C(Nc1ccc2c(c1)nc1n2CCSC1)c1ccccc1", 108]
]}

Query block: If you can, please state the reported viability value of `CCOC(=O)Nc1sc(=S)n(C)c1C` .
Result block: 104

Query block: Could you do the same for `O=C(COc1ccccc1Cl)NCc1ccco1` , please?
Result block: 103

----------
Entries and their differential viability (reversal) values follow.
Test: reversal of MRP1-mediated doxorubicin resistance, pilot screen, H69AR cells, doxorubicin co-treatment (AID 601)
Recorded Conditions: H69AR cells + 2 uM doxorubicin, CellTiter-Glo, 72 h; at 10 µM; stronger effect = higher value
Express your answer in %, writing the number without its unit.

Before answering, review these 2 worked examples.
{"columns": ["Compound", "differential viability (reversal), %"],
 "data": [
  ["CCSc1nc(C)nc2c1oc1ccccc12", 10],
  ["COCCN(C(=O)Cn1nnc2ccccc21)C(C(=O)NC1CCCC1)c1cc(OC)ccc1OC (stereo not drawn)", -0.19]
]}

Query block: Quick one: differential viability (reversal) of `Cc1ccc2nc(NCCCN3CCOCC3)c(C=NCCCN3CCOCC3)c(=O)n2c1` ?
Result block: -4.68

Query block: Quick one: Cc1ccc(S(=O)(=O)N2CCCC2C(=O)OCc2nc3ccccc3s2)cc1 (stereo not drawn)
Result block: 0.14

Query block: Also, COC(=O)C1C(=O)c2c([nH]c(C(=O)OCCOC(C)C)c2C)CC1C (stereo not drawn) please.
Result block: 7.92

Query block: Okay, and O=C1Nc2ccccc2OC1CC(=O)N1CCCC1 (stereo not drawn) ?
Result block: 11.9

Query block: Entry Cc1ccc(C(=O)CC2(O)C(=O)N(CN3CCOCC3)c3ccccc32)cc1 (stereo not drawn) please
Result block: -5.11

Query block: Moving on to `CCc1ccc(C=NC23CN4CN(CN(C4)C2)C3)s1`
Result block: 9.64

----------
Test: growth inhibitors of H69AR lung tumor, primary screen, human, duplicate replicates (AID 580);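 note: 100% = mean luminescence of untreated wells and 0% = no signal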
Recorded Conditions: H69AR lung tumor cells viability, ATP luminescence, 72 h; at 10 µM
Activity calls are given as the source filed them.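 Rule for the calls: active = viability at or under a set limit in both replicates, limit being median viability minus 3 SD (cut at about 48% in these data, passing the limit was not always enough); inconclusive = at or under the limit in just one replicate; inactive = at or above the limit in both replicates.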
Can you answer with just one of these options? active, inactive

Please review the following examples before continuing.
{"columns": ["Compound", "Group"],
 "data": [
  ["COCCn1c(NCc2ccc(C)cc2)nc2c1c(=O)[nH]c(=O)n2C", "inactive"],
  ["O=C(NCc1ccccn1)c1cccs1", "inactive"],
  ["Cc1cccc(COc2ccc(/C(O)=C3\\C(=O)C(=O)N(CCN(C)C)C3c3ccncc3)cc2)c1 (stereo not drawn)", "inactive"],
  ["Cc1ccc(S(=O)(=O)N(C)Cc2cc3ccccc3[nH]c2=O)cc1", "inactive"],
  ["Cc1ccc(C(=O)N2CCN(C(=O)c3ccc(C)c(C)c3)C(C)C2)cc1C (stereo not drawn)", "inactive"],
  ["CC(C)(C)C(=O)CCN1C(=O)C2(OCCO2)c2ccccc21", "inactive"]
]}

Query block: Status in this test for `O=c1[nH]c2cccnc2n1Cc1ccco1` ?
Result block: inactive

Query block: Another compound to look at: O=C1N2c3ccccc3CCc3cccc(c32)C1(O)C(F)(F)F (stereo not drawn)
Result block: inactive

Query block: Try this compound too: `COc1cc(CC(=O)Nc2ncc(C)s2)cc(OC)c1OC`
Result block: inactive

Query block: Next compound up: `COCCNC(=O)Cn1nc(C(F)(F)F)c(Br)c1C`
Result block: inactive

Query block: `Cc1ccc2c(Cl)cc(Cl)c(OCc3c(C)noc3C)c2n1` ?
Result block: inactive

Query block: Param item: COc1ccc(Cn2nnnc2C(c2ccccc2OC)N2CCC(C(N)=O)CC2)cc1 (stereo not drawn)
Result block: inactive

Query block: Same for `O=C(Nc1ccc(F)cc1)c1cccc2c1C(=O)N(Cc1ccccn1)C2`
Result block: inactive

Query block: Try `COc1ccc2nc(CC(C)(C)CC(=O)O)c[n+]([O-])c2c1` next.
Result block: inactive

Query block: Cool, now COc1cc2c(c(OC)c1)C(c1ccncc1)CC(=O)N2 (stereo not drawn)
Result block: inactive

Query block: Now consider Cc1ccc(CNC(=O)C2CCCN(S(=O)(=O)c3cccnc3)C2)cc1 (stereo not drawn) .
Result block: inactive

Query block: For `CCC(=O)c1ccc(OC(=O)c2ccc(Br)o2)cc1` then?
Result block: inactive

Query block: Also check CCN1CCCC1CNC(=O)CS(=O)(=O)Cc1nc(-c2ccccc2C)oc1C (stereo not drawn)
Result block: inactive

Query block: Entry `COc1ccc(Cc2nc(-c3ccc(NC(=O)c4cccnc4)cc3)no2)cc1` please
Result block: active

Query block: What do we get for `CN(c1ccccc1C(N)=O)S(=O)(=O)c1ccccc1` ?
Result block: inactive

Query block: And `CCOc1cccc(OCCOCCN2CCCC2)c1` ?
Result block: inactive

Query block: One more compound: `COc1ccc(C(=O)N2CCN(S(=O)(=O)c3cc(Cl)ccc3OC)CC2)cc1`
Result block: inactive

Query block: Similarly, `O=C(CSc1nnc(Cn2nnc(-c3ccccc3)n2)n1-c1ccccc1)Nc1ccc(F)cc1` ?
Result block: inactive
